Experimental protocol: molar heat capacity at constant pressure
Experimental context: 305.15 K; 101.33 kPa; Liquid; Large sample (1 g) DSC
Output yes for molar heat capacity at constant pressure not less than 300 J/K/mol; output no otherwise.

Data request: Form field: molar heat capacity at constant pressure at least 300 J/K/mol? Entry: CCCOCCO
Data returned: no

Data request: Dear colleague, could you confirm whether CCCCOCCOCCO has molar heat capacity at constant pressure at or above 300 J/K/mol?
Data returned: yes

Data request: molar heat capacity at constant pressure >= 300 J/K/mol for CCOCCO ?
Data returned: no

Data request: Decide: molar heat capacity at constant pressure of CCCCOCCO >= 300 J/K/mol?
Data returned: no

Data request: Is it the case that CCCCCCCCOCCOCCOCCO [2-[2-[2-(octyloxy)ethoxy]ethoxy]ethanol] has molar heat capacity at constant pressure reaching or exceeding 300 J/K/mol?
Data returned: yes

Data request: Would you say COCCOCCOCCO [2-[2-(2-methoxyethoxy)ethoxy]ethanol] shows molar heat capacity at constant pressure at minimum 300 J/K/mol?
Data returned: yes

Data request: Is molar heat capacity at constant pressure for COCCOCCOCCOCCO at or above 300 J/K/mol?
Data returned: yes

Data request: Record CCCCCCOCCOCCO ; criterion: molar heat capacity at constant pressure no lower than 300 J/K/mol. Met?
Data returned: yes

Data request: Entry COCCOCCO : is its molar heat capacity at constant pressure no less than 300 J/K/mol?
Data returned: no

Data request: Determine whether this compound has molar heat capacity at constant pressure no lower than 300 J/K/mol: CCCOCCOCCO
Data returned: yes
